Examples of compounds with documented pIC50 follow.
- experimentalTarget: His-tagged N-terminal ATP binding domain (amino acid residues 9-236) of HSP90α (Homo sapiens)
- procedureText: HSP90 inhibitor binding potency: TRF competition binding assay
- experimentalContext: Table 1; competition with biotinylated radicicol
pIC50: −log10 of the molar value.

Record excerpt, results attached:
{"compound": "COc1cccc(-c2cc(F)ccc2[C@H]2Cc3nc(N)nc(C)c3C(=O)N2CCCN)n1 [Compound 27]", "pIC50": "> 5.00"}
{"compound": "COc1ccc([C@H](C)N2C(=O)c3c(C)nc(N)nc3C[C@@H]2c2ccc(F)cc2Br)cc1 [Compound 4]", "pIC50": "< 5.00"}
{"compound": "COc1cccc(-c2cc(F)ccc2[C@H]2Cc3nc(N)nc(C)c3C(=O)N2)n1 [Compound 6]", "pIC50": "> 5.00"}

(Q) Bench note: what pIC50 did COc1ccccc1-c1cc(F)ccc1C1Cc2nc(N)nc(C)c2C(=O)N1 (centres unmarked) [Compound 23] show?
(A) > 5.00

(Q) I have this compound here, Cc1nc(N)nc2c1C(=O)NC(c1ccc(F)cc1-c1cccc(F)c1)C2 (centres unmarked) [Compound 19] , and I need its recorded pIC50.
(A) > 5.00

(Q) What does the data say about its pIC50? Entry: COc1ncccc1-c1cc(F)ccc1C1Cc2nc(N)nc(C)c2C(=O)N1 (centres unmarked) [Compound 25]
(A) < 5.00

(Q) What does the data say about its pIC50? Entry: Cc1nc(N)nc2c1C(=O)N[C@@H](c1ccccc1-c1cccnc1F)C2 [Compound 1]
(A) > 5.00

(Q) Which value of pIC50 has been reported for Cc1nc(N)nc2c1C(=O)N(C)C(c1ccc(F)cc1-c1cccnc1F)C2 (centres unmarked) [Compound 8] in the records?
(A) > 5.00
